Where do these numbers come from? They come from ChEMBL document CHEMBL3045481.

Listing: Ratio of selected compounds
Test system: Sogatella furcifera
Assay Summary: Insecticidal activity against Sogatella furcifera on insect-resistanct rice plant PR116 assessed as resurgence ratio at 0.100% concentration
Format: functional

Example cases with answers are listed next.
O=S1OCC2C(CO1)C1(Cl)C(Cl)=C(Cl)C2(Cl)C1(Cl)Cl (centres undefined) [ENDOSULFAN] : <1
CCOP(=S)(OCC)Oc1cnc2ccccc2n1 [QUINALPHOS] : 1.31
CCOP(=S)(OCC)Oc1nc(Cl)c(Cl)cc1Cl [CHLORPYRIFOS] : <1

We now examine a further compound.
What does the record list as Ratio for O=[N+]([O-])/N=C1\NCCN1Cc1ccc(Cl)nc1 [IMIDACLOPRID] ?
<1
